# credit: the supplement of paper PMC10567573

B1: CAMK2D (parent)
chain: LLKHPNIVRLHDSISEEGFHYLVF

Variants of: B1
protocol-description: protein stability index of a GFP-peptide fusion (GPS, HEK-293T) (PSI 1-6); higher = more stable;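 also: lentivirally expressed fusions sorted by FACS into six bins by GFP to DsRed ratio, PSI derived from sequencing read proportions per bin multiplied by bin number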
assay-setup: c terminus: a fixed tail appended
Kind request: treat 2 as inclusive, so protein stability index at 2 or higher is Y, anything lower is N.

> print(dat)
   variant.string  category.label
1            H11R               Y
2             H4A               Y
3             L2V               Y

Ask | Determine whether this variant has protein stability index no lower than 2: `S13R`
Reply | N

Ask | Determine whether this variant has protein stability index no lower than 2: `S13I`
Reply | Y

Ask | Determine whether this variant has protein stability index no lower than 2: `E17K`
Reply | Y

Ask | Is it the case that `D12C` has protein stability index reaching or exceeding 2?
Reply | Y

Ask | Check this variant for protein stability index at or above 2: `S15K`
Reply | Y

Ask | Given the entry `F24E` , answer whether its protein stability index meets or surpasses 2.
Reply | N
